Assay: CREB reporter modulators under forskolin, primary screen, cell-based, PC12, CRE-LacZ reporter, forskolin-stimulated (AID 1146);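 further: PC12 cells with 6xCRE LacZ reporter stimulated by forskolin 10 µM; beta-galactosidase reporter signal reflecting CREB driven transcription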
Settings: luminescence, 4.5 h, higher = more signal, called active from +8 up or from −8 down
For each of the compounds below, state its z-score.
// keep it numeric: no unit symbol after the value

Asked: Can you look up the measured z-score of COC(=O)CC=C[C@@H](C)[C@H](OCc1cccc(-c2ccccc2)c1)C1CCCCC1 for me?
Given back: -0.198

Asked: Try this compound next: C#CCCCON=C1C[C@@H](O)[C@@H](O)[C@@H]2[C@@H]3C(=O)N(CCC(=O)OCC)C(=O)[C@@H]3CC[C@H]12
Given back: 0.783

Asked: How about CO[C@H]1COC(=O)[C@H](C)NC(=O)CC=C[C@@H](C)[C@H](OC)COC(=O)[C@@H](OCc2ccccc2)C=C[C@@H]1C ?
Given back: -0.262

Asked: Same for COC(=O)CC=C[C@@H](C)[C@@H](C=NOCC[C@@H]1C=C[C@H](OC(C)=O)[C@@H](COC(C)=O)O1)NS(=O)(=O)c1ccc(C)cc1
Given back: 0.378
